We begin with a simple list: items and their reported IC50.
- assayTarget: UniProtKB O14744
- Sequence (O14744 whole entry): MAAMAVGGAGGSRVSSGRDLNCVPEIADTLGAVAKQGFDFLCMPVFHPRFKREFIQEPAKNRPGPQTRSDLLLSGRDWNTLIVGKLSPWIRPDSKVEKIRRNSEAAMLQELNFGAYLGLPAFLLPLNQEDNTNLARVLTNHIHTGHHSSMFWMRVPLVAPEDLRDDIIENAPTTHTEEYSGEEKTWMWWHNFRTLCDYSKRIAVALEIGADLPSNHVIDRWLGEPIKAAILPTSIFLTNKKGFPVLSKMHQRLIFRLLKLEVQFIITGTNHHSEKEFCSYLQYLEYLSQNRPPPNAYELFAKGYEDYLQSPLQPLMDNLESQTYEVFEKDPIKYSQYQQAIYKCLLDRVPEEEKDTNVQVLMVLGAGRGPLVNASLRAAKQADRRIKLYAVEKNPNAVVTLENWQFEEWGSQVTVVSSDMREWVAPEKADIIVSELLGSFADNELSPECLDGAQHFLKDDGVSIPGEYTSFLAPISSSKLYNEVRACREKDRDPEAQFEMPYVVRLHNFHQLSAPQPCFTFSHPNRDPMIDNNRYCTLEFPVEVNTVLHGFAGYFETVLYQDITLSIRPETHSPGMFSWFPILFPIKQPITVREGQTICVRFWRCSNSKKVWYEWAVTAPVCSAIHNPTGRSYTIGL
- runDescription: Inhibition of PRMT5 methyltransferase activity in human HCT-116 cells expressing wild type MTAP assessed as inhibition of PRMT5-mediated SDMA modification level incubated for 96 hrs by In-cell Western analysis
- Assay type: cell-based
Respond with the bare value in nM.

Reported IC50 for `Cn1ncc(-c2cc(C(F)F)c3c(=O)[nH]nc(CN)c3c2)c1-c1sc2ccccc2c1C#N` : what is it? 759

Now this one: `CCOc1cc(-c2cnn(C)c2-c2sc3ccccc3c2C#N)cc2c(CN)n[nH]c(=O)c12` 618

Now give it for `Cn1ncc(-c2cc([C@H]3CCCO3)c3c(=O)[nH]nc(CN)c3c2)c1-c1sc2ccccc2c1C#N` too. 174
